# measurement.notes: Human HepG2 cell viability assay in 384 well format
# Format: toxicity, cell-based
# Design: dose 125 nL, time 70.5 hour; concentration not given beside the values
# setup.conditions: HepG2 cells, read-out: Inhibition
The compounds listed here are annotated with their cytotoxicity at 70.5 h.

# compound, cytotoxicity at 70.5 h
records = [
    ("CNc1oc(-c2ccc(OC)c(S(=O)(=O)N(C)C)c2)nc1C#N", "-9.03%"),
    ("CN(Cc1ccccn1)C(CO)c1cccc(Br)c1 (configuration not stated)", "-1.08%"),
    ("O=C(C1CC(c2cccc(F)c2)=NO1)N1CCc2ccccc21 (configuration not stated)", "-4.18%"),
    ("Cc1nc(Nc2ncccn2)cc(C2CCCN2C(C)C)n1 (configuration not stated)", "-14%"),
    ("O=C1CCCCN1CSc1nnnn1-c1ccc(Cl)cc1", "-4.94%"),
    ("Cc1nnc(SCC(=O)c2cc3c(cc2Cl)NC(=O)C3)o1", "-31.5%"),
    ("Cc1nn(C)c(C)c1NC(=O)CN1CCOC(CN(C)C)C1 (configuration not stated)", "5.23%"),
    ("CN(C)c1nc2n(c(=O)n1)CCN2C(=O)Nc1ccc(Cl)c(Cl)c1", "-10.9%"),
    ("Cn1cc(CN2CCCC23CCN(S(C)(=O)=O)CC3)cn1", "-2.11%"),
    ("COc1cc2nc3n(c(=O)c2cc1OC)CCN(C(C)=O)CC3", "-13.7%"),
    ("CN1CCOC(CNCc2nc(-c3ccco3)no2)C1 (configuration not stated)", "2.27%"),
    ("c1ccc(-c2nccc(CNC3CCc4ncnn4C3)n2)cc1 (configuration not stated)", "-4.99%"),
]

* * *

Each entry below carries its reported cytotoxicity at 70.5 h.
# measurement.notes: Human HepG2 cell viability assay in 384 well format
# Format: toxicity, cell-based
# Parameters: dose 125 nL, time 70.5 hour; concentration not given beside the values
# setup.conditions: HepG2 cells, read-out: Inhibition
assay.endpoint: cytotoxicity at 70.5 h (%)

# compound, reported
records = [
    ("COc1cccc(Cn2[nH]c(C)c3c(NC(=O)C(C)OC)nnc2-3)c1 (centres undefined)", -6.21),
    ("COc1ccc(OC)c(C(=O)N2C[C@H]3CC[C@@H]2CN(C)C3)c1", 20.2),
    ("C1CCC(c2nn3c(C4CCCO4)nnc3s2)C1 (centres undefined)", -9.64),
    ("Cc1noc([C@H]2C[C@@H]3CCN(c4nnc(C)s4)C[C@H]3O2)n1", -8.11),
    ("Cc1cnn(CC(C)NCc2nc(-c3cccnc3)no2)c1 (centres undefined)", 3.38),
    ("CCOCC1CN(C(=O)COc2ccccc2C)Cc2ncn(C)c21 (centres undefined)", -4.87),
    ("CSCCNC(=O)c1cc(Br)cn1C(C)C", -1.74),
    ("COc1ccc(C)cc1CC(=O)N1CCN(CC(C)O)CC1 (centres undefined)", -5.05),
    ("Cc1cc(OC(F)F)c(C(=O)N2CCC(CN(C)C)CC2)s1", -5.68),
    ("Clc1ccccc1-c1nnc(CN2CCCC2Cn2cncn2)o1 (centres undefined)", -2.55),
    ("CCn1ncc(-c2cc(C(F)(F)F)nc(N3CCC(N)CC3)n2)c1C", 8.37),
    ("COC(=O)c1cccc(-c2c[nH]c(C)n2)c1", -7.21),
    ("Cc1cnn(CC2CCCCN2Cc2nccn2CC(F)(F)F)c1 (centres undefined)", 4.47),
    ("C=C(Br)CN(C)C1CCN(CCc2ccccn2)CC1", -6.85),
    ("CCc1c(O)nc2nc(N3CCOCC3)nn2c1C", -11),
    ("O=C1CC(c2ccccc2)C2(CCN(Cc3ccncc3)CC2)N1 (centres undefined)", -12.7),
    ("O=C(CCCc1ccccn1)NCC(O)c1c(F)cccc1F (centres undefined)", -1.43),
    ("CCOC(=O)N1CCC(Nc2cc(CC)nc3c(C)c(C)nn23)CC1", -4.43),
    ("COCC(NC(=O)c1cn(-c2cccc(Cl)c2F)nn1)C1CC1 (centres undefined)", -0.579),
    ("Cc1cc(F)ccc1N1CCCC(NC2CCOCC2)C1=O (centres undefined)", 31.7),
    ("Cc1nc2c(c(=O)n1C)CCN(C(=O)Cn1cccc1)CC2", -4.24),
    ("CCN1CCOCC2(CCCN(C(=O)c3cccc(O)c3)C2)C1 (centres undefined)", -6.13),
    ("Cc1cc(N2CCC(Cc3cccnc3)CC2)ncn1", 23.3),
    ("Cc1ccc(C(=O)N2C[C@@H]3CN(c4ncccn4)C[C@@H]3C2)cc1", -4.94),
]
